Experiment: Pharmacokinetic study in mouse
Format: in vivo, hGCGR mice
Settings: hGCGR, plasma, oral 2 mg/kg vs IV 1 mg/kg, read-out: F, oral bioavailability
readout-kind: bioavailability (%)
Entry rule: numbers only, all in %.

Documented bioavailability of CCC[C@H](c1ccc(C(=O)NCCC(=O)O)cc1)[C@H](c1ccc(OC(F)(F)F)cc1)c1c[nH]c2c(F)cc(Cl)cc12 [Example 1] : 87
